# Method: Cytotoxicity (cell viability) by MTT assay
# Assay Context: mouse, BV-2 microglia cells, Viability (at 50 µM, %), compound at 50 µM
// viability at 50 µM lookup, one value per entry
Report the figure in % without appending any unit label.

Please review the entries below; each comes with its answer.
>  <Compound>
O=c1c2cccc(O)c2oc2cccc(O)c12 [Compound 5, 1,5-dihydroxyxanthone]

>  <Readout Label>
viability at 50 µM

>  <Endpoint Value>
101

$$$$
>  <Compound>
O=c1c2cc(O)ccc2oc2cccc(O)c12 [Compound 6, 1,7-dihydroxyxanthone]

>  <Readout Label>
viability at 50 µM

>  <Endpoint Value>
102

$$$$

(Q) Report viability at 50 µM for O=C1C=CC23CC(O)(COC2=C1)Cc1cc(O)c(O)cc13 (stereo not drawn) [Compound 2, 7,10,11-trihydroxydracaenone] please.
(A) 99.3

(Q) What about this compound? O=C1/C(=C/c2ccc(O)c(O)c2)COc2cc(O)ccc21 [Compound 8, sappanone A]
(A) 99.3

(Q) Would you kindly repeat that for O=C(/C=C/c1ccc(O)c(O)c1)c1ccc(O)cc1O [Compound 7, butein] ?
(A) 94

(Q) Next record, please: CO[C@H]1[C@]2(O)COC3=CC(=O)C=C[C@@]31c1cc(O)c(O)cc1C2 [Compound 1, epicaesalpin J]
(A) 96.5
